For each record, write down the corresponding Ki.
- study-target: Cy5-labelled Mcl1 (amino acids 171-321) C286S protein (UniProtKB Q07820) (Homo sapiens (Human), UniProt Q07820, C286S)
- Sequence (Q07820 171-321 C286S): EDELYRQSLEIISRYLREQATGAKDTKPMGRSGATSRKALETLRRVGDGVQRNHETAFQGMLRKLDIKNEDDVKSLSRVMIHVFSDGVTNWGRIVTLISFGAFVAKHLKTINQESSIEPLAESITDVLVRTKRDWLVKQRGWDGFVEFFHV
- assay-protocol: Inhibition of Mcl-1 by the fluorescence quenching assay (Example A, Method B)
- Assay type: binding
A number alone suffices; assume nM.

Input: Entry C[C@@H](COc1ccnc2c1[C@H](C)CCC2)C[C@H]1Cc2ccc(OC3CCCC3)cc2[C@]12CC[C@@](Nc1cccc(Cl)c1)(C(=O)O)CC2 : reported Ki = ?
Output: 0.135

Input: Query (molecule): CC(C)COc1cc2c(cc1Cl)C[C@H](C[C@@H](C)COc1ccnc3c1[C@H](C)CCC3)[C@]21CC[C@](Nc2cccc(Cl)c2)(C(=O)O)CC1 ; field requested: Ki
Output: 0.469

Input: Reported Ki, molecule C[C@@H](COc1ccnc2c1[C@H](C)CCC2)CC1=Cc2ccc(CO)cc2[C@]12CC[C@@](Nc1cccc(Cl)c1)(C(=O)O)CC2 : ____
Output: 0.19

Input: Name the recorded Ki for CCCOc1ccc2c(c1)[C@]1(CC[C@@](Nc3cccc(Cl)c3)(C(=O)O)CC1)[C@@H](C[C@@H](C)COc1ccnc3c1[C@H](C)CCC3)C2 .
Output: 0.0573

Input: Quick one: Ki of COCCNC(=O)OC(C)OC(=O)[C@]1(Nc2cccc(Cl)c2)CC[C@@]2(CC1)c1cc3c(cc1C[C@@H]2C[C@@H](C)COc1ccnc2c1[C@H](C)CCC2)OCO3 (stereo partly shown) ?
Output: 0.256

Input: Could you share which Ki value was measured for C[C@@H](COc1ccnc2c1[C@H](C)CC[C@@H]2F)C[C@H]1Cc2ccccc2[C@]12CC[C@@](Nc1cccc(Cl)c1)(C(=O)O)CC2 ?
Output: 0.965

Input: Ki lookup needed for C[C@@H](COc1ccnc2ccsc12)C[C@H]1Cc2cc(F)ccc2[C@]12CC[C@@](Nc1cccc(Cl)c1)(C(=O)O)CC2 , thanks.
Output: 0.932

Input: Any idea what its Ki is? The molecule is C[C@@H]1CCCc2nccc(OCC(CC3Cc4ccccc4[C@]34CC[C@@](Nc3cccc(Cl)c3)(C(=O)O)CC4)C(F)F)c21 (single isomer, unassigned) [Example 518]
Output: 1260

Input: Query: Ki; subject: CC(C)C1COc2cc3c(cc2OC1)[C@]1(CC[C@@](Nc2cccc(Cl)c2)(C(=O)O)CC1)[C@@H](C[C@@H](C)COc1ccnc2c1[C@H](C)CCC2)C3 (single isomer, unassigned) [Example 992]
Output: 0.0795

Input: Param item = C[C@@H](COc1ccnc2c1CCC[C@H]2O)C[C@H]1Cc2ccccc2[C@]12CC[C@@](Nc1cccc(Cl)c1)(C(=O)O)CC2 ; retrieve measured Ki.
Output: 2.74
